- System: Candida albicans
- Procedure summary: Antifungal activity against Candida albicans NCIM 3557 after 48 hrs by microbroth dilution method
- Assay type: functional
# GI listing for each entry below
A number alone suffices; assume µg/mL.

Use the examples below as a reference point.
1) Cc1cc(NC(=O)NC(=O)c2ccc(Cl)cc2)c(C(C)C)cc1O : 64
2) Cc1cc(NC(=O)NC(=O)c2ccccc2Cl)c(C(C)C)cc1O : 128
3) Cc1ccc(C(C)C)cc1O : 128
4) Cc1cc(NC(=S)NC(=O)c2ccccc2F)c(C(C)C)cc1O : 128
5) Cc1cc(NC(=S)NC(=O)c2c(F)cccc2F)c(C(C)C)cc1O : 256

Query: Need GI, item `Cc1cc(NC(=S)NC(=O)c2ccc(F)cc2)c(C(C)C)cc1O`
Result: 64

Query: Please answer likewise for `Cc1cc(NC(=S)NC(=O)c2ccc(Cl)cc2)c(C(C)C)cc1O`
Result: 64
